The reported measurements were obtained from patent EP4417602A1.

Test system: ALOMY
Assay: A. Herbicidal pre-emergence action on harmful plants (Tables A)
Assay type: in vivo, Alopecurus myosuroides
Settings: application rate 1280 g/ha; Table A9a
This section presents compounds with their documented pre-emergence activity against ALOMY values.
Numbers only; they are read as %.

Tell me the measured pre-emergence activity against ALOMY of COCc1nn(C)cc1C(=O)N1CCCC1Cc1ccccc1C (single isomer, unassigned) [Example I-084] , please.
90

Find the recorded pre-emergence activity against ALOMY belonging to COCc1nn(C)cc1C(=O)N1CCCC1Cc1ccccc1C (racemic) [Example I-078] and report it.
90

# pre-emergence activity against ALOMY lookup, item C=CCn1cc(C(=O)N2CCCC2Cc2ccccc2F)c(COC)n1 (racemic) [Example I-039]
90

Please report the recorded pre-emergence activity against ALOMY for COCc1nn(C)cc1C(=O)N1CCCC1Cc1ccccc1Br (racemic) [Example I-018] .
100

----------
System: ZEAMX
Assay: F. Post-emergence effects on crop plants (Tables F)
Type: in vivo, Zea mays
Conditions: application rate 320 g/ha, crop plant
Item-by-item account of post-emergence activity against ZEAMX in %
Note: unit % is implicit; provide only the numeric part.

Take a look at these entries with their results.
| COMPOUND | RECORDED_MEASUREMENT |
| --- | --- |
| Cn1cc(C(=O)N2CCCC2Cc2ccccc2F)c(COCC(F)F)n1 (racemic) [Example I-044] | 0 |
| Cn1cc(C(=O)N2CCCC2Cc2ccc(F)cc2F)c(COc2ccccc2)n1 (racemic) [Example I-008] | 0 |

Report post-emergence activity against ZEAMX in % for Cn1cc(C(=O)N2CCCC2Cc2ccccc2F)c(COCC2COC2)n1 (racemic) [Example I-091] please.
0

# get_value(readout='post-emergence activity against ZEAMX in %', item= COCc1nn(C(=O)OC(C)(C)C)cc1C(=O)N1CCCC1Cc1ccccc1F (racemic) [Example I-040] )
0

Given Cn1cc(C(=O)N2CCCC2Cc2ccccc2F)c(COc2ccccc2)n1 (racemic) [Example I-006] , state its recorded post-emergence activity against ZEAMX in %.
20

Give its post-emergence activity against ZEAMX in % value. Item: COCc1c(C(=O)N2CCCC2Cc2ccccc2F)cnn1C (single isomer, unassigned) [Example I-157]
0

----------
System: ALOMY
Experiment: A. Herbicidal pre-emergence action on harmful plants (Tables A)
Assay type: in vivo, Alopecurus myosuroides
Details: application rate 1280 g/ha; Table A9a
ASSAY_METRIC: pre-emergence activity against ALOMY (%)
Enter your answer as a number in %; do not include the unit.

Take a look at these entries with their results.
| COMPOUND | UNIT_SYMBOL | pre-emergence activity against ALOMY |
| --- | --- | --- |
| COCc1c(C(=O)N2CCCC2Cc2c(F)cccc2F)cnn1C (single isomer, unassigned) [Example I-126] | % | 90 |
| Cn1cc(C(=O)N2CCCC2Cc2cc(F)ccc2F)c(COc2ccccc2)n1 (racemic) [Example I-010] | % | 100 |
| COCc1nn2c(c1C(=O)N1CCCC1Cc1ccccc1F)CCC2 (racemic) [Example I-022] | % | 90 |
| COCc1nn(C)cc1C(=O)N1CCCC1Cc1cccc(F)c1F (racemic) [Example I-077] | % | 90 |
| COCc1nn(C)cc1C(=O)N1CCCC1Cc1c(F)cccc1Cl (single isomer, unassigned) [Example I-087] | % | 90 |
| C=C(c1ccccc1F)C1CCCN1C(=O)c1cn(C)nc1COC (racemic) [Example I-023] | % | 90 |

Could you now consider this next compound?
Which pre-emergence activity against ALOMY value belongs to CCOCc1c(C(=O)N2CCCC2Cc2ccccc2F)cnn1C (single isomer, unassigned) [Example I-142] ?
90

----------
System: AMARE
Assay: B. Herbicidal post-emergence action on harmful plants (Tables B)
Assay type: in vivo, Amaranthus retroflexus
Conditions: application rate 1280 g/ha; Table B8
# post-emergence activity against AMARE values compiled below
Lab book: enter the figure in %, no units written.

Which post-emergence activity against AMARE value belongs to COCc1nn(C)cc1C(=O)N1CCCC1Cc1c(F)cccc1Cl (single isomer, unassigned) [Example I-087] ?
90

State the recorded post-emergence activity against AMARE for this entry: CCOCc1nn(C)cc1C(=O)N1CCC1Cc1c(F)cccc1Cl (racemic) [Example I-110]
100

Record request: post-emergence activity against AMARE value, item Cn1cc(C(=O)N2CCCC2Cc2ccccc2F)c(COc2ccccc2)n1 (racemic) [Example I-006]
90

Data request, read-out post-emergence activity against AMARE, for COCc1nn(C)cc1C(=O)N1CCCC1Cc1ccccc1F (racemic) [Example I-002]
90

----------
Tested on: POAAN
Test: A. Herbicidal pre-emergence action on harmful plants (Tables A)
Assay type: in vivo, Poa annua
Settings: application rate 320 g/ha; Table A7b
ASSAY_METRIC: pre-emergence activity against POAAN
I'd appreciate it if you included the unit after the number.

Use these answered entries as a reference point.
| COMPOUND | ASSAY_METRIC | RECORDED_MEASUREMENT |
| --- | --- | --- |
| COCc1nn(Cc2ccccc2)cc1C(=O)N1CCCC1Cc1ccccc1F (racemic) [Example I-024] | pre-emergence activity against POAAN | 90% |
| COCc1nn2c(c1C(=O)N1CCCC1Cc1ccccc1F)CCC2 (racemic) [Example I-022] | pre-emergence activity against POAAN | 100% |
| Cn1cc(C(=O)N2CCC2Cc2c(F)cccc2Cl)c(COCC(F)F)n1 (racemic) [Example I-107] | pre-emergence activity against POAAN | 100% |
| COCc1nn(C)cc1C(=O)N1CCCC1Cc1ccccc1C (racemic) [Example I-078] | pre-emergence activity against POAAN | 100% |
| C=CCn1cc(C(=O)N2CCCC2Cc2ccccc2F)c(COC)n1 (racemic) [Example I-039] | pre-emergence activity against POAAN | 100% |
| Cn1cc(C(=O)N2CCC2Cc2ccccc2Cl)c(COCC(F)F)n1 (racemic) [Example I-109] | pre-emergence activity against POAAN | 100% |
| C=CCOCc1c(C(=O)N2CCCC2Cc2ccccc2F)cnn1C (single isomer, unassigned) [Example I-144] | pre-emergence activity against POAAN | 100% |

From here, focus on the item given below.
Quick one: pre-emergence activity against POAAN of COCc1nn(C)cc1C(=O)N1CCCC1C(O)c1ccccc1F (single isomer, unassigned) [Example I-054] ?
90%

----------
Test system: POAAN
Test: A. Herbicidal pre-emergence action on harmful plants (Tables A)
Format: in vivo, Poa annua
Conditions: application rate 320 g/ha; Table A7b
From the text: Seeds of mono- and dicotyledonous weed plants were sown in plastic pots (double sowings with one species of mono- and one species of dicotyledonous weed plants per pot), in sandy loam, and covered with soil. […]
Documented pre-emergence activity against POAAN across a set of compounds
Give a bare numeral; the unit % is implied.

| COMPOUND | pre-emergence activity against POAAN, % |
| --- | --- |
| COCCn1cc(C(=O)N2CCCC2Cc2ccccc2F)c(COC)n1 (racemic) | 100 |
| Cn1ncc(C(=O)N2CCCC2Cc2ccccc2F)c1COCC(F)(F)F (single isomer, unassigned) | 100 |
| COCc1nn(C)cc1C(=O)N1CCCC1Cc1c(F)cccc1Cl (single isomer, unassigned) | 100 |
| COCc1nn(C)cc1C(=O)N1CCCC1Cc1ccccc1F (single isomer, unassigned) [Example I-003] | 100 |
| COCc1nn(C)cc1C(=O)N1CCCC1Cc1cccc(F)c1F (racemic) [Example I-077] | 100 |

Form: Entry = COCc1nn(C)cc1C(=O)N1CCCC1Cc1c(F)cccc1F (single isomer, unassigned) [Example I-082] | System = POAAN | pre-emergence activity against POAAN = ____
100

Please provide the recorded pre-emergence activity against POAAN for COC(=O)c1nn(C)cc1C(=O)N1CCCC1Cc1ccc(F)cc1F (racemic) , tested on POAAN.
100

Please tell me: pre-emergence activity against POAAN of COCc1nn(C)cc1C(=O)N1CCCC1Cc1ccc(Cl)cc1Cl (racemic) , system POAAN?
100

----------
System: GLXMA
Assay: D. Pre-emergence effects on crop plants (Tables D)
Format: in vivo, Glycine max
Conditions: crop plant; application rate 320 g/ha; Table D4a
Source text: Seeds of mono- and dicotyledonous weed plants and crop plants were sown, in plastic or organic planting pots, in sandy loam and covered with soil. The compounds according to the invention, formulated in the form of wettable powders (WP) or as emulsifiable concentrates (EC), were applied to the surface of the covering soil as aqueous suspension or emulsion, with the addition of 0.5% of an additive, at an application rate of 6001 of water/ha (converted). […]
ASSAY_METRIC: pre-emergence activity against GLXMA (%)
Kindly provide the numeric value in % only, without the unit symbol.

Record excerpt, results attached:
| COMPOUND | TARGET_ENTITY | RECORDED_MEASUREMENT |
| --- | --- | --- |
| COCc1nn2c(c1C(=O)N1CCCC1Cc1ccccc1F)CCC2 (racemic) [Example I-022] | GLXMA | 0 |
| Cn1cc(C(=O)N2CCCC2Cc2ccccc2F)c(COCC2COC2)n1 (racemic) [Example I-091] | GLXMA | 0 |
| C=C(c1ccccc1F)C1CCCN1C(=O)c1cn(C)nc1COC (racemic) [Example I-023] | GLXMA | 0 |
| COCc1c(C(=O)N2CCCC2Cc2ccccc2F)cnn1C (single isomer, unassigned) [Example I-157] | GLXMA | 0 |
| COCc1c(C(=O)N2CCCC2(C)Cc2ccccc2F)cnn1C (single isomer, unassigned) [Example I-066] | GLXMA | 0 |

Would you mind telling me what pre-emergence activity against GLXMA value was observed for COCc1nn(C)cc1C(=O)N1CCCC1Cc1cc(F)ccc1F (racemic) [Example I-001] ?
20

Which pre-emergence activity against GLXMA reading was recorded for the compound COCc1c(C(=O)N2CCCC2Cc2ccccc2Cl)cnn1C (racemic) [Example I-170] ?
0

Entry COCc1nn(C)cc1C(=O)N1CCCC1C(O)c1ccccc1F (single isomer, unassigned) [Example I-053] : reported pre-emergence activity against GLXMA = ?
10
